assay: Metabolic stability in rat brain assessed as parent compound remaining after 30 mins by radio-HPLC analysis; assay type: ADME, tissue-based; conditions: read-out: Stability
readout: remaining at 0.5 h

Query block: Fill in: remaining at 0.5 h of CCN(CC)C(=O)Cc1c(-c2ccc(OCCF)cc2)nn2c(C)cc(C)nc12 [DPA-714] is ___
Result block: < 3%

* * *

assay: Displacement of [3H]flunitrazepam from CBR receptor in rat brain cortex membrane incubated for 20 mins by liquid scintillation spectrometer method; type: cell membranes, Cerebral cortex
readout: IC50 (nM)
One number for each entry, in nM.

Query block: Fill in: IC50 of CN1C(=O)CN=C(c2ccccc2)c2cc(Cl)ccc21 [DIAZEPAM] is ___
Result block: 5.6

Every entry's value here was drawn from ChEMBL document CHEMBL5226324.
